test system: 885724-159-R-J1-PDC complex spheroid viability; experiment: Anticancer human tumor 885724-159-R-J1-PDC patient-derived pancreatic adenocarcinoma cell line growth inhibition [GQUAD]; conditions: second compound 0.1 µM; first compound 0.316 µM; hits give low values
measurement label: viability, T/C (%)
Numbers only, in %.

Worked cases, answers included:
Exam item: # viability, T/C lookup, item CC[C@@]1(O)C(=O)OCc2c1cc1n(c2=O)Cc2cc3c(CN(C)C)c(O)ccc3nc2-1 + Cc1[nH]c2ccc(F)cc2c1-c1nc2c3cccnc3c3ncccc3c2[nH]1
Marked response: 74.6

Exam item: Same question, COc1cc(C2c3cc4c(cc3C(OC3OC5COC(C)OC5C(O)C3O)C3COC(=O)C23)OCO4)cc(OC)c1O (stereo not given) + Cc1[nH]c2ccc(F)cc2c1-c1nc2c3cccnc3c3ncccc3c2[nH]1 this time
Marked response: 93.1

Hey, quick one: what's viability, T/C for each of these?
1. Cc1[nH]c2ccccc2c1CCNCc1ccc(/C=C/C(=O)NO)cc1 + CN(C)c1ccc(Nc2c3ccc(NC(=O)CCN4CCCC4)cc3nc3cc(NC(=O)CCN4CCCC4)ccc23)cc1
2. CC(=O)O[C@H]1C(=O)[C@@]2(C)[C@H]([C@H](OC(=O)c3ccccc3)[C@]3(O)C[C@H](OC(=O)[C@H](O)[C@@H](NC(=O)c4ccccc4)c4ccccc4)C(C)=C1C3(C)C)[C@]1(OC(C)=O)CO[C@@H]1C[C@@H]2O + CN(C)c1ccc(Nc2c3ccc(NC(=O)CCN4CCCC4)cc3nc3cc(NC(=O)CCN4CCCC4)ccc23)cc1
3. CC(C)(O)C1CCC(Nc2ccc3ncc(-c4cccc(C(F)(F)F)c4)n3n2)CC1 (stereo not given) + Cc1[nH]c2ccc(F)cc2c1-c1nc2c3cccnc3c3ncccc3c2[nH]1

Marked response:
1. 54.1
2. 82.3
3. 77.4

---

test system: 885724-159-R-J1-PDC complex spheroid viability; test: Anticancer human tumor 885724-159-R-J1-PDC cell line growth inhibition [GQUAD]; conditions: second compound 3.16 µM; first compound 0.316 µM; hits give low values;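 note: spheroids exposed to agents for seven days before readout; percent of vehicle control viability where 100% = DMSO wells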
Exercise: for every item that follows, state its recorded viability, T/C.

Exam item: Fill in: viability, T/C of CC1COCCN1c1cc(C2(O)CC3CCC(C2)O3)c2cnn(-c3ccn[nH]3)c2n1 (stereo not given) + Cc1[nH]c2ccc(F)cc2c1-c1nc2c3cccnc3c3ncccc3c2[nH]1 is ___
Marked response: 41.1%

Go through the list and state viability, T/C for each entry.
1. COc1ncnc(C2CC2)c1-c1ncc2cnn(Cc3ccc(-c4nc(C(F)(F)F)cn4C(C)C)cc3)c2n1 + Cc1[nH]c2ccc(F)cc2c1-c1nc2c3cccnc3c3ncccc3c2[nH]1
2. CC(C)(O)C1CCC(Nc2ccc3ncc(-c4cccc(C(F)(F)F)c4)n3n2)CC1 (stereo not given) + CN(C)c1ccc(Nc2c3ccc(NC(=O)CCN4CCCC4)cc3nc3cc(NC(=O)CCN4CCCC4)ccc23)cc1
3. CC(C)n1c(=O)n(C)c2cnc3cc(F)c(-c4ccc(OCCCN5CCCCC5)nc4)cc3c21 + Cc1[nH]c2ccc(F)cc2c1-c1nc2c3cccnc3c3ncccc3c2[nH]1
4. CC(=O)O[C@H]1C(=O)[C@@]2(C)[C@H]([C@H](OC(=O)c3ccccc3)[C@]3(O)C[C@H](OC(=O)[C@H](O)[C@@H](NC(=O)c4ccccc4)c4ccccc4)C(C)=C1C3(C)C)[C@]1(OC(C)=O)CO[C@@H]1C[C@@H]2O + CN(C)c1ccc(Nc2c3ccc(NC(=O)CCN4CCCC4)cc3nc3cc(NC(=O)CCN4CCCC4)ccc23)cc1

Marked response:
10.7%
65.9%
53.8%
63.6%
